System: SK-MEL-5 melanoma
Experiment: NCI tumour cell line growth inhibition, 48 h; in the data active = GI50 below about 0.43 µM; inactive = the rest
Outcomes: T (active), F (inactive)

{"columns": ["Compound", "System name", "Qualitative label"],
 "data": [
  ["N#CC(C#N)=Cc1ccc(-c2ccc(-c3nc4ccccc4o3)cc2)o1", "SK-MEL-5 melanoma", "F"],
  ["CC(=O)N[C@@H](Cc1ccc(OP(=O)(O)O)cc1)C(=O)N[C@H]1CCC(=O)N2CCC[C@@H](C(=O)NCc3ccc(O)cc3)N2C1=O", "SK-MEL-5 melanoma", "F"],
  ["CSc1ccc(C2=NN(C(=O)c3ccc(N)cc3)C(c3ccc(F)cc3)C2)cc1 (configuration not stated)", "SK-MEL-5 melanoma", "F"],
  ["C=C=[CH][Sn]([c]1ccccc1)([c]1ccccc1)[c]1ccccc1", "SK-MEL-5 melanoma", "F"],
  ["COc1ccc(-c2cncn2-c2cc(OC)c(OC)c(OC)c2)cc1F", "SK-MEL-5 melanoma", "T"],
  ["O=C(CC1(O)C(=O)Nc2c(Cl)ccc(Cl)c21)c1ccc(C2CC2)cc1 (configuration not stated)", "SK-MEL-5 melanoma", "F"],
  ["CCS/C(Nc1ccccc1)=C(\\C#N)C(=O)N/N=C/c1ccc(Cl)cc1Cl", "SK-MEL-5 melanoma", "F"]
]}

###

Tested on: ACHN renal
Assay: NCI tumour cell line growth inhibition, 48 h

{"columns": ["Compound", "TGI"],
 "data": [
  ["CC(=O)OCC(=O)C1(O)C(C)CC2C3C=C(C)C4=Cc5c(cnn5-c5ccccc5)CC4(C)C3C(O)CC21C (stereo not given)", "9.03 µM"],
  ["CCOC(=O)[C@H]1C[C@]23CN(C(=O)OC(C)(C)C)CC[C@H]2CCC2(SCCCS2)[C@@H]3N1C", "> 100 µM"],
  ["COc1cc(NCc2ccc3n2-c2ccccc2OC3)cc(OC)c1OC", "> 100 µM"],
  ["O=C(O)c1cc(N(Cc2ccccc2O)Cc2cc(O)ccc2O)ccc1O", "> 100 µM"],
  ["COc1cccc(/C=C2\\C(=O)N(C(=O)Cc3ccccc3)N=C2C)c1", "> 100 µM"]
]}

###

Test system: BT-549 breast
Assay: NCI tumour cell line growth inhibition, 48 h
Where a SMILES comes first, the peptide text is derived from it. The star is where a group is joined. Boc = CC(C)(C)OC(=O)*
Each record here notes measured TGI.

{"columns": ["Compound", "Limit qualifier", "TGI (µM)"],
 "data": [
  ["CC(C)N(C[C@H]1O[C@@H](n2cnc3c(N)ncnc32)[C@H](O)[C@@H]1O)C1CC(CCc2nc3ccc(C(C)(C)C)cc3[nH]2)C1 (stereo partly specified)", ">", 100],
  ["CN(C)/C=N/S(=O)(=O)c1nn2c(C=O)c(-c3ccc([N+](=O)[O-])cc3)nc2s1", "=", 25.5],
  ["CNCCOc1nc2c3cnccc3cc(-c3cc(OC)c(OC)c(OC)c3)c2c2ccncc12", "=", 0.613],
  ["C[C@]12CC[C@H](O)CC1=CC[C@@H]1[C@@H]2CC[C@]2(C)C(=O)CC[C@@H]12", ">", 100],
  ["C=C(C)[C@@H]1CC[C@]2(C)[C@H](C=CC3=C4C[C@@](C)(CO)CC[C@]4(C)CC[C@]32C)[C@@]1(C)CCCN", "=", 3.07],
  ["COc1ccc2[nH]c3c(C)c4cnccc4c(C)c3c2c1", ">", 10],
  ["Cc1cc(C)c(NS(=O)c2cccc([N+](=O)[O-])c2)c(C)c1 (stereo unspecified)", ">", 100],
  ["CC(O)=NC(Cc1ccc2ccccc2c1)C(O)=NC(Cc1ccc(Cl)cc1)C(O)=NC(Cc1c[nH]c2ccccc12)C(O)=NC(CO)C(O)=NC(Cc1ccc(O)cc1)C(O)=NC(CCCN=C(N)N)C(O)=NC(CC(C)C)C(O)=NC(CCCN=C(N)N)C(=O)N1CCCC1C(O)=NC(C)C(=N)O (stereo unspecified)", ">", 100],
  ["N#Cc1c(Oc2ccc(F)c(NC(=O)Cc3cccc(C(F)(F)F)c3)c2)ccc2nc(NC(=O)C3CC3)sc12", ">", 100],
  ["CO[C@]12C[C@H](CNC(=O)c3cc(Br)c(Br)[nH]3)O[C@H]1NC(=O)N2", ">", 100],
  ["O=C1c2ccccc2C(=O)c2c(NC(=O)c3ccc4c5c(ncnc35)-c3ccccc3C4=O)cccc21", ">", 100],
  ["CCOC(=O)C(CC(C)C)NC(=O)C(Cc1ccccc1)NC(=O)CNC(=O)OC(C)(C)C (stereo not drawn) (Boc-Gly-Phe-Leu-OEt; configuration not given here)", "=", 50.9],
  ["Cc1cc2c(C(C)C)c(O)c(O)c(C=O)c2c(O)c1-c1c(C)cc2c(C(C)C)c(O)c(O)c(C=O)c2c1O (tested in a mixture with another compound)", "=", 3.76],
  ["CC(=O)OCC(=O)C1(O)C(C)CC2C3C=C(C)C4=Cc5c(cnn5-c5ccccc5)CC4(C)C3C(O)CC21C (stereo unspecified)", "=", 3.85],
  ["Cc1cc2c(=O)[nH]nc(N)c2c(N)n1", ">", 100],
  ["ClC1=C(Cl)C(Cl)=C(Cl)C1=Cc1ccc(Cl)cc1", "=", 1.58]
]}

###

Tested on: OVCAR-5 ovarian
Test: NCI tumour cell line growth inhibition, 48 h; in the data active means GI50 below about 0.43 µM; inactive means the rest
Labels: t = active, f = inactive

{"columns": ["Compound", "Qualitative label"],
 "data": [
  ["Brc1ccc(Br)nn1", "f"],
  ["CC(C)N(C[C@H]1O[C@@H](n2cnc3c(N)ncnc32)[C@H](O)[C@@H]1O)C1CC(CCc2nc3ccc(C(C)(C)C)cc3[nH]2)C1 (some centres undefined)", "f"],
  ["C=C1CO[C@@H]2C[C@@H]1CC/C(C)=C/CC/C(C)=C/CC[C@@]2(C)O", "f"],
  ["CC1(C)CC2CC(C)(CN2c2ncnc3ccc(Br)cc23)C1 (centres undefined)", "f"],
  ["CCCCCc1c(C)[nH]c(/C=c2\\[nH]/c(=C3/C=c4ccccc4=N3)cc2OC)c1C", "t"],
  ["N#CC[C@H](C1CCCC1)n1cc(-c2ncnc3[nH]ccc23)cn1", "f"],
  ["Cc1cc2c(C(C)C)c(O)c(O)c(C=O)c2c(O)c1-c1c(C)cc2c(C(C)C)c(O)c(O)c(C=O)c2c1O (tested in a mixture with another compound)", "f"],
  ["COc1cc(C2C(C#N)=C(N)Oc3cc4c(cc32)OCO4)cc2c1OCO2 (centres undefined)", "f"],
  ["N#Cc1c(Oc2ccc(F)c(NC(=O)Cc3cccc(C(F)(F)F)c3)c2)ccc2nc(NC(=O)C3CC3)sc12", "t"],
  ["C=C(C)[C@@H]1CC[C@]2(C)[C@H](C=CC3=C4C[C@@](C)(CO)CC[C@]4(C)CC[C@]32C)[C@@]1(C)CCCN", "f"],
  ["C=C=[CH][Sn]([c]1ccccc1)([c]1ccccc1)[c]1ccccc1", "f"],
  ["C[C@@H](Oc1cc(-c2cnn(C3CC4(CCCNC4)C3)c2)cnc1N)c1c(Cl)ccc(F)c1Cl (some centres undefined)", "f"],
  ["CC(C)CNc1nc(N=[N+]=[N-])nc(NCC(C)C)n1", "f"],
  ["COc1cnc2c(c1)C(=O)c1c-2n(CCCN2CCN(CCO)CC2)c(=O)c2cc([N+](=O)[O-])ccc12", "f"],
  ["COc1ccc(C2C3=C(COC3=O)N(CCO)c3cc4c(cc32)OCCO4)cc1OC (centres undefined)", "f"],
  ["CON", "f"],
  ["CC[O-].CC[O-].O=C([CH-]C(=O)c1ccccc1)c1ccccc1.O=C([CH-]C(=O)c1ccccc1)c1ccccc1.[Ti+4]", "f"],
  ["O=C(Nc1ccc(S(=O)(=O)NC2CCCCCC2)cc1)C(c1ccccc1)S(=O)(=O)c1ccc(F)cc1 (centres undefined)", "t"],
  ["O=C(/C=C/c1cccc(B(O)O)c1)c1cccc(B(O)O)c1", "f"]
]}

###

Tested on: SK-OV-3 ovarian
Assay: NCI tumour cell line growth inhibition, 48 h
Readout: TGI

{"columns": ["Molecule", "Result value"],
 "data": [
  ["C=CCC1=CC2(OC)C(=O)C(OC)(OC)C1C1C(OC)(OC)C(=O)C(OC)=CC12CC=C (centres undefined)", "> 100 µM"],
  ["COc1ccccc1OC(=O)/C=C/c1ccccc1", "> 100 µM"],
  ["CNC(=O)OCCN1c2ccccc2Sc2ccccc21", "> 100 µM"],
  ["O=c1cc(-c2ccccc2Cl)[nH]c2cc3c(cc12)OCO3", "11.4 µM"],
  ["CC1OC(OC2C(O[C@@H]3C[C@@H]4CC[C@@H]5[C@H](CC[C@]6(C)[C@@H]7[C@H](C[C@@H]56)O[C@]5(CC[C@@H](C)CO5)[C@H]7C)[C@@]4(C)C[C@H]3O)OC(CO)C(OC3OC(CO)C(O)C(O)C3O)C2O)C(O)C(O)C1O (some centres undefined)", "3.17 µM"],
  ["CC(C)CNc1nc(N=[N+]=[N-])nc(NCC(C)C)n1", "> 10 µM"],
  ["Cc1cc2nc3c4ccccc4n(CCN(C)C)c3nc2cc1C", "20.2 µM"],
  ["CC1(C)O[C@@H](CP(c2ccccc2)c2ccccc2)[C@H](CP(c2ccccc2)c2ccccc2)O1", "> 100 µM"],
  ["N#CC(c1ccccc1)N(CCc1ccccc1)C(=O)Oc1ccccc1 (centres undefined)", "> 100 µM"],
  ["C=C1CC(C/C=C(\\C)CC2CC(=C)C(=O)O2)OC1=O (centres undefined)", "> 100 µM"],
  ["O=C(N/C(=C/c1ccc(Cl)cc1)c1nc2ccccc2c(=O)n1Nc1ccc([N+](=O)[O-])cc1[N+](=O)[O-])c1ccccc1", "> 100 µM"],
  ["O=C(/C=C/c1ccc(Cl)c(Cl)c1)C1CCC(Cl)CC1 (centres undefined)", "33 µM"],
  ["CCOC(=O)C1(Cc2ccc3ccccc3c2)CCCCCN1 (centres undefined)", "> 100 µM"],
  ["Cc1cc2c(cc1C)[n+]([O-])c(-c1c(Cl)cccc1Cl)c(N)[n+]2[O-]", "> 100 µM"],
  ["CO[C@@]12CC(=O)/C(=C(O)\\C=C\\c3ccccc3)C(=O)[C@]1(OC)Cc1ccccc1O2", "> 100 µM"],
  ["OC1C2C=CCC1CCC2 (centres undefined)", "> 100 µM"],
  ["CCOC(=O)c1c(N2CCOCC2)[nH]c(=O)c(C(c2ccc(Cl)c([N+](=O)[O-])c2)c2c(O)c(C(=O)OCC)c(N3CCOCC3)[nH]c2=O)c1O", "> 100 µM"],
  ["Cc1ccccc1NC(=O)C(=O)Cc1cnc2ccccc2n1", "> 100 µM"],
  ["CC(=O)NNc1nc(C)c(C(/C=C/c2ccc(NC(C)=O)cc2)=N/NS(=O)(=O)c2ccc(C)cc2)s1", "> 100 µM"]
]}
